Biological target: EPHB2 (UniProt P29323)
Sequence (P29323 whole entry, looked up): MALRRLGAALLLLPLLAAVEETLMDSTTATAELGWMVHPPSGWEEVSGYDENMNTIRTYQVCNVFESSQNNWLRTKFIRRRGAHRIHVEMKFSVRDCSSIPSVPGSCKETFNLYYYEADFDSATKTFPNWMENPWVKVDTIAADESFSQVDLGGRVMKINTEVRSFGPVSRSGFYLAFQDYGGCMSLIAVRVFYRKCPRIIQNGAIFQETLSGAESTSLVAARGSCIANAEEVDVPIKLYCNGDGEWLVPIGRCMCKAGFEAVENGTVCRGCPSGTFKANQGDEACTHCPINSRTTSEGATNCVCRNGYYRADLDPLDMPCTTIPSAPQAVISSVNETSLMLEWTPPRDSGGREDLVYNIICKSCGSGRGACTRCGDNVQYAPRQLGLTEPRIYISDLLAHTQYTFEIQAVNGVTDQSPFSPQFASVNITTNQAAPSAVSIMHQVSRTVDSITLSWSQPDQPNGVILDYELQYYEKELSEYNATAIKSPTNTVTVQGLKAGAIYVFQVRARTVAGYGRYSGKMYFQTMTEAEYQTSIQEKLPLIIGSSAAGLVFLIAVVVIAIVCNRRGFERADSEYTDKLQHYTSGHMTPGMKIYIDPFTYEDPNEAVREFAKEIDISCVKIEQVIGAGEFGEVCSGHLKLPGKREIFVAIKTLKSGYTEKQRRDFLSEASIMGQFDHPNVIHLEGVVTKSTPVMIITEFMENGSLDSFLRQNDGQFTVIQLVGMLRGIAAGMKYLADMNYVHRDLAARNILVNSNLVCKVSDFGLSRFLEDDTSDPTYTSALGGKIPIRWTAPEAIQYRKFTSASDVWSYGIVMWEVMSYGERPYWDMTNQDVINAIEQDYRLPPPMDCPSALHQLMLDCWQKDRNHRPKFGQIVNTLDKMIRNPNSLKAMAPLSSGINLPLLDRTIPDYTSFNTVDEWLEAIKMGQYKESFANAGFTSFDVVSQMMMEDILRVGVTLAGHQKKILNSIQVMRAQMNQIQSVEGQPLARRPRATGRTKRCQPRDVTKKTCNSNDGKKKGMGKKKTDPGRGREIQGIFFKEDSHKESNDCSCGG
Assay: phosphorylation enrichment, bacterial display (enrichment ratio); higher = better substrate or ligand; peptides without Tyr show the background
Consider the following sequences and their measured phosphorylation enrichment readings.

Note to self: phosphorylation enrichment recorded for ISMAGYSIPEL [EDAR_Y406_T403M] was 0.553

Note to self: phosphorylation enrichment recorded for DDLEVYLKHPL [SACS_Y3477_L3481P] was 0.625

Note to self: phosphorylation enrichment recorded for FSGKAYADEER [CRIM1_Y826] was 0.571

Note to self: phosphorylation enrichment recorded for IVAREYYSKAD [CAMK2B_Y107_E110K] was 0.602

Note to self: phosphorylation enrichment recorded for ESLSSYWESAK [APOC2_Y47] was 0.576

---

Target: Fes (UniProt P07332)
Sequence (P07332 whole entry, looked up): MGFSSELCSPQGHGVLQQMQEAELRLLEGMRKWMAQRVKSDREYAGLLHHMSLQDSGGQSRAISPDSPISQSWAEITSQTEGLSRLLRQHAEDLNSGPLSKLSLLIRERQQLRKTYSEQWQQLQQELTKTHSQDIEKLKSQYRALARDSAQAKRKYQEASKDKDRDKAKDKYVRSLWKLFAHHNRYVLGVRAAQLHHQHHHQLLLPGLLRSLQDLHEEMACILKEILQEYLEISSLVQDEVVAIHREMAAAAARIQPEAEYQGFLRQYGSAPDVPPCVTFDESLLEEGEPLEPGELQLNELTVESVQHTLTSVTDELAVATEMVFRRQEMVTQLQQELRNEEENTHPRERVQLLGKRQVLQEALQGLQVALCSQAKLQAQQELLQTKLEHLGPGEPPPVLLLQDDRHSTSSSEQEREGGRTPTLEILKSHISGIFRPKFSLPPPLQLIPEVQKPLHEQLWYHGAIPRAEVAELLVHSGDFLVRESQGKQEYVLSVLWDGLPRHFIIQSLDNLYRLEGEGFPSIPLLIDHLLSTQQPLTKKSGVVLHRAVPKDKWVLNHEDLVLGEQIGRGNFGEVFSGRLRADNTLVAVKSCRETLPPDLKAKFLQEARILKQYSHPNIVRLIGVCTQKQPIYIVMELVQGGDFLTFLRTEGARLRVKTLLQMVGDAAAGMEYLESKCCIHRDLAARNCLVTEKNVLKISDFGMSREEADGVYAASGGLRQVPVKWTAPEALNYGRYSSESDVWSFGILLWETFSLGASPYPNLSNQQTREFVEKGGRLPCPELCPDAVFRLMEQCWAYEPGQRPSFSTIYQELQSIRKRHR
Test: phosphorylation enrichment, bacterial display (enrichment ratio); higher = better substrate or ligand; peptides without Tyr show the background
Readout Type: phosphorylation enrichment
Answer with a number only.

Worked set:
{"Seq": "LVTCSYLLGNS [LMNA_Y646_R644C]", "phosphorylation enrichment": 3.29}
{"Seq": "PIFEGYALPHA [ACTA1_Y171_YF]", "phosphorylation enrichment": 0.778}
{"Seq": "NSNSDYVDVLP [SH2D1B_Y127]", "phosphorylation enrichment": 1.33}

Value sought: phosphorylation enrichment, system Fes (UniProt P07332), item HNLYSYPTKHE [MYO3A_Y1396] . Result: 1.18

Value sought: phosphorylation enrichment, system Fes (UniProt P07332), item DERQPYAHMNG [IGF1R_Y1346] . Result: 0.599

Value sought: phosphorylation enrichment, system Fes (UniProt P07332), item LLREWYMIISR [HUWE1_Y4066] . Result: 1.45

Value sought: phosphorylation enrichment, system Fes (UniProt P07332), item LITSVYGCSRQ [TMPRSS6_Y290] . Result: 1.25

Value sought: phosphorylation enrichment, system Fes (UniProt P07332), item PYIDSYEKDVA [PGM1_Y521_L516P] . Result: 1.48

Value sought: phosphorylation enrichment, system Fes (UniProt P07332), item PATYTYDEYKK [COL8A2_Y648] . Result: 1.3

---

Target: Grb2 SH2 (UniProt P62993)
Sequence (P62993 whole entry, looked up): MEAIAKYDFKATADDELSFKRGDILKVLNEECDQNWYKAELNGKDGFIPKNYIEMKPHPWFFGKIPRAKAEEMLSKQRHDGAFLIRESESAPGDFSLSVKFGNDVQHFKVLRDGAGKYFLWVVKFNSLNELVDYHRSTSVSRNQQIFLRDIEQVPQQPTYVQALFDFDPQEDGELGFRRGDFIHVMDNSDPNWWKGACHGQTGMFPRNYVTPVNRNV
Assay: SH2 binding enrichment of the phosphorylated peptide, bacterial display (enrichment ratio); higher = better substrate or ligand; peptides without Tyr show the background
Readout Type: SH2 binding enrichment

Worked set:
{"Seq": "RNDRVYQPLRD [CD3D_Y149_Q147R]", "SH2 binding enrichment": 0.845}
{"Seq": "RLPSGYGLAFR [DLK1_Y262_YF]", "SH2 binding enrichment": 0.823}
{"Seq": "PLFRVYGLESL [INSR_Y94_L89P]", "SH2 binding enrichment": 0.851}
{"Seq": "DNKALYDICFR [TUBB3_Y208_E205K]", "SH2 binding enrichment": 0.739}
{"Seq": "PGPQSYPTVTG [PAX5_Y299_I301T]", "SH2 binding enrichment": 0.787}

Note to self: SH2 binding enrichment recorded for DERQPYAHMNG [IGF1R_Y1346] was 0.729

Note to self: SH2 binding enrichment recorded for CPPKVYELMRA [ABL2_Y515] was 0.944

Note to self: SH2 binding enrichment recorded for CTTIHYIYMCN [TP53_Y234_N235I] was 0.894

Note to self: SH2 binding enrichment recorded for VQVAYYTVMMN [SPATA17_Y84_M86V] was 1.63

Note to self: SH2 binding enrichment recorded for MVTSGYKAKTI [EFR3A_Y447] was 0.748

Note to self: SH2 binding enrichment recorded for TVVGLYQKSSL [MYH7_Y609] was 0.872
